assay_name: growth suppression of yeast trafficking mutant, preliminary HTS, modulators of trafficking downstream of Golgi apparatus project, 1536-format plate, OD 615 nm (AID 637)
setup_conditions: yeast transport mutant growth, absorbance 615 nm, 18 h; stronger effect = higher value
property_label: inhibition (%)
Numbers only here, please. The scale is %.

Find the measured inhibition of "Cc1cccc(NC(=O)Nc2cccc(C#N)c2)n1" and report it. 3.67

Find the measured inhibition of "CCOCCOc1nc2c(c(=O)n(C)c(=O)n2C)n1Cc1ccc(C)cc1" and report it. 4.33

Find the measured inhibition of Cc1ccnc(NC(=O)C2CCCN(S(=O)(=O)c3cnc[nH]3)C2)c1 (centres undefined) and report it. -2.79

Find the measured inhibition of Cc1cccc(C2CC(c3ccccc3)Nc3nc(N)nn32)c1 (centres undefined) and report it. 1.15

Find the measured inhibition of "COc1ccccc1N(CC(=O)Nc1cccnc1)S(C)(=O)=O" and report it. -3.28

Find the measured inhibition of "Cc1c(-n2c(CN3C(=O)c4ccccc4C3=O)nc3ccccc3c2=O)c(=O)n(-c2ccccc2)n1C" and report it. 4.6

Find the measured inhibition of O=C(C1COc2ccccc2O1)N1CCCC1 (centres undefined) and report it. -10.2

Find the measured inhibition of O=C(CC1(O)C(=O)Nc2ccccc21)c1ccc2c(c1)OCO2 (centres undefined) and report it. -3

Find the measured inhibition of "Cn1cc(Cl)c(C(=O)NC2CCCC2)n1" and report it. 5.5

###

assay_name: MRP1 drug-resistance reversers in H69AR cells – cell-based, doxorubicin co-treatment, pilot screen (AID 601)
setup_conditions: H69AR cells + 2 uM doxorubicin, CellTiter-Glo, 72 h; measured here: viability with 2 uM doxorubicin; at 10 µM; stronger effect = lower value
So basically: is viability under 90%? Then yes. Not under? Then no.

Please check: viability for "Cc1ccc2oc(=O)c3cnn(CC(=O)NCCC(C)C)c3c2c1" , strictly under 90% or not? yes

Please check: viability for "O=C(Cn1c(=O)[nH]c2ccsc2c1=O)NC1CCCCCC1" , strictly under 90% or not? no

Please check: viability for "O=C(CCNS(=O)(=O)c1cccs1)Nc1ccccc1F" , strictly under 90% or not? no

Please check: viability for "Clc1c(CSc2nc3ccccc3o2)nc2sccn12" , strictly under 90% or not? yes

Please check: viability for "O=C(Nc1ccc(CN2CCOCC2)cc1)c1cc2ccccn2n1" , strictly under 90% or not? no

Please check: viability for "Cc1ccc(S(=O)(=O)NCCSc2nnnn2-c2ccc(C(N)=O)cc2)cc1" , strictly under 90% or not? no

Please check: viability for CC1CC(NC(=O)c2cnc3n(c2=O)CCS3)CC(C)(C)C1 (stereo not given) , strictly under 90% or not? yes

Please check: viability for "CCN1CCN(C(=O)C2CCN(C(=O)c3cc4sccc4n3CC)CC2)CC1" , strictly under 90% or not? no

Please check: viability for "COc1ccc(C(=O)Oc2c(CN3CCOCC3)cc(Cl)c3cccnc23)cc1OC" , strictly under 90% or not? yes

Please check: viability for "COC(=O)Cn1c(CN2CCOCC2)nc2c1c(=O)n(C)c(=O)n2C" , strictly under 90% or not? no

Please check: viability for "CCOC(=O)/C(C#N)=C(/C)c1ccc(OC)cc1" , strictly under 90% or not? no

Please check: viability for C#CCOC(=O)C1C2C=CC(C2)C1C(=O)O (stereo not given) , strictly under 90% or not? yes

Please check: viability for "O=c1oc2c3c4c(cc2cc1-c1nc2ccccc2[nH]1)CCCN4CCC3" , strictly under 90% or not? yes

Please check: viability for "COc1ccc(C(=O)c2ccc(OC)c(N)c2)cc1N" , strictly under 90% or not? yes

Please check: viability for "COCCNC(=O)CN(C)S(=O)(=O)c1ccc(Br)cc1" , strictly under 90% or not? no

Please check: viability for CC1(C)C(c2ccccc2)=NC(c2ccccc2)N1O (stereo not given) , strictly under 90% or not? yes

Please check: viability for "COc1ccccc1OCCNC(=O)c1cccs1" , strictly under 90% or not? yes

Please check: viability for "COCCNC(=O)c1cc(-c2cccs2)on1" , strictly under 90% or not? yes

Please check: viability for O=C(COC(=O)C1(c2ccccc2F)CCCC1)NC1CCS(=O)(=O)C1 (stereo not given) , strictly under 90% or not? no

Please check: viability for "CSc1nc2ccccc2c(=O)n1N" , strictly under 90% or not? no

Please check: viability for CC1=C(C(N)=O)C(c2ccccn2)n2nc(-c3ccccc3Cl)nc2N1 (stereo not given) , strictly under 90% or not? yes

Please check: viability for COc1ccc(N2C(=O)CCC(C(=O)N3CCCCC3)C2c2ccc(OC)c(OC)c2)cc1 (stereo not given) , strictly under 90% or not? no

Please check: viability for CC(=O)N(c1ccc(Br)cc1)C1C=CS(=O)(=O)C1 (stereo not given) , strictly under 90% or not? yes

Please check: viability for "Nc1nc(N2CCCCC2)nc(N(c2ccccc2)c2ccccc2)n1" , strictly under 90% or not? yes

Please check: viability for "CCOC(=O)N1CCN(C(=O)c2ccc(CS(=O)(=O)c3c(Cl)cccc3Cl)o2)CC1" , strictly under 90% or not? no

Please check: viability for CC1CCCCN1S(=O)(=O)c1ccc(NC(=O)c2cccs2)cc1 (stereo not given) , strictly under 90% or not? yes
